ASSAYED_SYSTEM: Gamma-secretase
PROCEDURE_TEXT: Modulation of gamma secretase in human H4 cells assessed as inhibition of amyloid beta (1 to 42) production
Assay type: cell-based
CONDITIONS_USED: read-out: IC50
OBSERVABLE: IC50 (nM)

Known IC50 results, listed for orientation:
[[record]]
molecule = "Cc1ncn(-c2ccc3c(c2)CCc2cn(Cc4ccccc4)nc2N3)n1"
assayed_system = "Gamma-secretase"
observable = "IC50"
obs_value = 180

[[record]]
molecule = "Clc1cn(-c2ccc3c(c2)CCc2cn(Cc4ccccc4)nc2N3)cn1"
assayed_system = "Gamma-secretase"
observable = "IC50"
obs_value = 40

[[record]]
molecule = "Cc1cn(-c2ccc3c(c2)CCc2ccc(Cc4ccc(F)cc4)nc2C3=O)cn1"
assayed_system = "Gamma-secretase"
observable = "IC50"
obs_value = 1000


[P] Cc1cncn1-c1ccc2c(c1)CCc1sc(Cc3ccc(F)cc3)nc1N2
[Q] Cc1cn(-c2ccc3c(c2)NC(=O)c2ccc(Cc4ccccc4)nc2N3)cn1
[R] O=C1Nc2cc(-n3cnc(Cl)c3)ccc2Nc2nc(Cc3ccccc3)ccc21
[S] Cc1ncn(-c2ccc3c(c2)NC(=O)c2ccc(Cc4ccccc4)nc2N3)n1
Challenge: Order by IC50, ascending. Write the labels, ordered according to the request.
Response given: Q, R, S, P

[A] Cc1ncn(-c2ccc3c(c2)CCc2sc(Cc4ccccc4)nc2N3)n1
[B] CC(c1ccccc1)c1ccc2c(n1)Nc1ccc(-n3cnc(Cl)c3)cc1NC2=O (racemic)
Challenge: Among A and B , whose measured IC50 is the smaller figure? // caller expects the label of the chosen entry
Response given: A
(A: 140 nM, B: 200 nM)
